# literature pull: Glucocorticoid receptor (Homo sapiens) Ki

Look up Ki: C(=C1c2ccccc2CCc2ccccc21)c1ccc2cc[nH]c2c1
< 1 µM

Look up Ki: CN(C)CCn1c(=O)[nH]c2cc(/C=C3\c4ccccc4COc4cc(F)ccc43)ccc21
< 10 µM

Look up Ki: Cc1cc(C2(c3cc(C)c(O)c(C)c3)C(=O)N(Cc3csc(-c4ccccc4)n3)c3ccccc32)cc(C)c1O
≤ 10 µM

Look up Ki: CS(=O)(=O)Nc1cccc(C=C2c3ccccc3CCc3c2cccc3-c2ccccc2)c1
< 0.5 µM
